Molecular target: T1, human GREM1 (hGREM1-His; SEQ ID NO: 595) (human, UniProt O60565 25-184)
T1 construct: also called biotin-hGREM1-His; recombinant human GREM1 protein
T1 sequence: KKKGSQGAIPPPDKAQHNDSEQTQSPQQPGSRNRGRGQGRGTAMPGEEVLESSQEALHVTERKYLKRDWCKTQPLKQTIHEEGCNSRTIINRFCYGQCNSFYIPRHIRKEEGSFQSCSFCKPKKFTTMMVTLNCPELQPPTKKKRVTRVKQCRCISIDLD
Assay: SPR, Biacore T200, 25 C, mAb captured, hGREM1-His injected;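 further: Heparin-supplemented HBS-EP+ used as running buffer, association and dissociation phases followed, Kd computed as koff divided by kon and half-life derived from koff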
Can you tell me t1/2 for the items I'm about to list?
Numbers only, in min.

QUERY: Requested field: t1/2. Item: H1M2907N (antibody, V domains shown, H1M prefix marks the Fc (chimeric, mouse constant domains)) VH: QVQLVESGGGVVQPGRSLRLSCAASGFTFSSYGMHWVRQAPGKGLEWVAIIWNDGSNKYYVDSVKGRFTISRANSKNTLYLQMNSLRAEDTAVYYCARDGLEPDAFDIWGQGTMVTVSS VL: EIVLTQSPATLSLSPGERATLSCRASQSVSSFLAWYQQKPGQAPRLLIYDASNRATGIPARFSGSGSGTDFTLTISSLEPEDFAVYYCQQRSNWPPYTFGQGTKLEIK
RESULT: 4.1

QUERY: Requested field: t1/2. Item: H2aM2901N (antibody, mouse IgG2, V domains shown, H2M prefix = mouse IgG2 Fc (here H2aM); also called H2M2901N) VH: EVQLVESGGGLVKPGGSLRLSCAASGFTFSYYSMIWVRQAPGKGLEWVSSISSSSSYIYYADSVKGRFTISRDNAKKSMYLQMNSLRAEDTAVYYCARGSGYPDYWGQGTLVTVSS VL: DIQMTQSPSSLSASVGDRVTITCRASQGINNYLAWYQQKPGKVPKLLIYAASTLRSGVPSRFSGSGSGTDFTLTISSLQPEDVATYYCQKYNSAPFTFGPGTKVDIK
RESULT: 8

QUERY: Requested field: t1/2. Item: H4H6246P (antibody, human IgG4, V domains shown, H4H prefix = human IgG4 Fc) VH: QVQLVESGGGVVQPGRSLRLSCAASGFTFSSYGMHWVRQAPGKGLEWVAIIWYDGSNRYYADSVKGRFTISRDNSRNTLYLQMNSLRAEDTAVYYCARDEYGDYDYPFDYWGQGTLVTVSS VL: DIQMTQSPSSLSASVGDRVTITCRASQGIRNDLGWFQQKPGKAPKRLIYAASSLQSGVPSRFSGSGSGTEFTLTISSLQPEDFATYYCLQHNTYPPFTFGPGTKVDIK
RESULT: 60

For every listed record, write down its t1/2.
1. H4H6251P (antibody, human IgG4, V domains shown, H4H prefix = human IgG4 Fc) VH: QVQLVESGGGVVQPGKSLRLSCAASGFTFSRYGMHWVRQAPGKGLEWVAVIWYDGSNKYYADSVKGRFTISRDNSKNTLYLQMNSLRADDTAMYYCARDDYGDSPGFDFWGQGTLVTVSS VL: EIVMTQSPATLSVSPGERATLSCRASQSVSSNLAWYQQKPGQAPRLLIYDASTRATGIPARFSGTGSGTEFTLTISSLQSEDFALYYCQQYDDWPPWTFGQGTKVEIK
2. H4H2889N (antibody, human IgG4, V domains shown, H4H prefix = human IgG4 Fc) VH: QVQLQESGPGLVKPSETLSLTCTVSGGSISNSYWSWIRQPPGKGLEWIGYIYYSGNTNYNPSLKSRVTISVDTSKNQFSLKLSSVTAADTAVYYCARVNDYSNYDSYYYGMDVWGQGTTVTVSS VL: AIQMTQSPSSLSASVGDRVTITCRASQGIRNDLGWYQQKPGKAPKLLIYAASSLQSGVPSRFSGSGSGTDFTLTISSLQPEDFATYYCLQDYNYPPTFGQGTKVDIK

RESULT:
1: 18; 2: 98
